target: 5-hydroxytryptamine receptor 7 (Homo sapiens, UniProt P34969); assay: Displacement of [3H]-LSD from human recombinant 5HT-7 receptor expressed in CHOK1 cell membranes after 120 mins
Sequence (P34969 whole entry): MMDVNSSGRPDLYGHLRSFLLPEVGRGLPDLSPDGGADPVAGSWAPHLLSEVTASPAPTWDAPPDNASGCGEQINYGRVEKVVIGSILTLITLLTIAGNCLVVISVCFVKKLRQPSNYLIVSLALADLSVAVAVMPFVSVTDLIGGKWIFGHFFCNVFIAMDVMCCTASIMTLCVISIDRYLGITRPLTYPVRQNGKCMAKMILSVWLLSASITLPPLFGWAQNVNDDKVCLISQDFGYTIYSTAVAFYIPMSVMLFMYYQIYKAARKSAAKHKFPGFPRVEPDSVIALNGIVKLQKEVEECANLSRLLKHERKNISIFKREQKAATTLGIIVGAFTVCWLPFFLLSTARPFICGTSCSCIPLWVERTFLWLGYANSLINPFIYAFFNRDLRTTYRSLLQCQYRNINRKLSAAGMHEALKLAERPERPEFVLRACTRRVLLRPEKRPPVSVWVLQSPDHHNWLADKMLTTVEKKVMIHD
Recorded IC50, one value per entry.
Numeric only. Scale: nM

Known results for molecules:
substance_smiles=Cl.Clc1cccc(Nc2nc(Cc3ccccc3)nc3c2CCNCC3)c1 observed_property=IC50 numeric_result=1000
substance_smiles=c1ccc(Cc2nc3c(c(Nc4ccccc4)n2)CCNCC3)cc1 observed_property=IC50 numeric_result=1560
substance_smiles=Fc1cccc(Nc2nc(Cc3ccccc3)nc3c2CCNCC3)c1 observed_property=IC50 numeric_result=1060

// moving on: another record for IC50
The recorded IC50 for `COc1cccc(Nc2nc(Cc3ccccc3)nc3c2CCNCC3)c1` is 497

Provenance of the data: ChEMBL document CHEMBL2390866
